# experimental target: Calcium-activated potassium channel subunit alpha-1 (Homo sapiens) (UniProt Q12791)
# Sequence (Q12791 whole entry): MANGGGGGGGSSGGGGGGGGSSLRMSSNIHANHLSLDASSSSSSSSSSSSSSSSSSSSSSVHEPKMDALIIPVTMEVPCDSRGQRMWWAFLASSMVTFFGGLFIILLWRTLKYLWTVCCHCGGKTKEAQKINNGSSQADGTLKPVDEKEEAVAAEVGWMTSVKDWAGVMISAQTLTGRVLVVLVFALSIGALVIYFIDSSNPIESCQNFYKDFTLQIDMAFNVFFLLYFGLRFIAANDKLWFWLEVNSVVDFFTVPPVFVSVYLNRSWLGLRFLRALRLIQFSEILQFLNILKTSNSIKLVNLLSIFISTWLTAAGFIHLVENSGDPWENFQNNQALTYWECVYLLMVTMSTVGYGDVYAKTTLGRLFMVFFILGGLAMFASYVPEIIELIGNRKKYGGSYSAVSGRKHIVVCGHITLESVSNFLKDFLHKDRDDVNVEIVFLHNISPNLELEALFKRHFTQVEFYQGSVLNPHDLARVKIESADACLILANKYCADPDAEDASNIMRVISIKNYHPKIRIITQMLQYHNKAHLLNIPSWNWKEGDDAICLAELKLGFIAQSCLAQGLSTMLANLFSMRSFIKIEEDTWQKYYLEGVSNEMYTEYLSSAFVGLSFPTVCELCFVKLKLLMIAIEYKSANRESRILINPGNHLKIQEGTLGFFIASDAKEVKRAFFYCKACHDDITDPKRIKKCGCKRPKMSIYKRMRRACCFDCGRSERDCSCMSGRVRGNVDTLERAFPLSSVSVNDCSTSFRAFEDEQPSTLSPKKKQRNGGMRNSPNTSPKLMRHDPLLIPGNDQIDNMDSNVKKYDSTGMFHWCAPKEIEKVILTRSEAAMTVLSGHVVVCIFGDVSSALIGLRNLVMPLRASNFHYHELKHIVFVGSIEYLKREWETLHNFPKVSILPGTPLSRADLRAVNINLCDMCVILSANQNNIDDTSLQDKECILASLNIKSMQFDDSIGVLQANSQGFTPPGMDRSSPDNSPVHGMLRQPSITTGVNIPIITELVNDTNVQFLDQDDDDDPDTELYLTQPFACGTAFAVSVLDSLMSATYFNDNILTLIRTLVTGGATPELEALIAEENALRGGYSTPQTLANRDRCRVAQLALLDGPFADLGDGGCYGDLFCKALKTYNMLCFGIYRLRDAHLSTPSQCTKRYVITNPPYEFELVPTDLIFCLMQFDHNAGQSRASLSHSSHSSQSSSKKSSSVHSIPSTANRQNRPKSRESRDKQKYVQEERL
# assay procedure: Activity at human maxi-K hSlo channel expressed in Xenopus oocytes assessed as increase in maxi k current at 20 uM relative to iberiotoxin
# Format: cell-based
# assay conditions: Oocyte
Known Activity of a selection of molecules
Could you write the number and then its unit?

Before answering, review these 3 worked examples.
molecule: Cn1c(=O)c(CCO)c(-c2cc(Cl)cc(CC(O)CO)c2O)c2cc(C(F)(F)F)ccc21 (centres undefined)
value reported: 112%
//
molecule: Cn1c(=O)c(CCO)c(-c2cc(Cl)cc(CCCO)c2O)c2cc(C(F)(F)F)ccc21
value reported: 164%
//
molecule: O=c1[nH]c2ccc(C(F)(F)F)cc2c(-c2cc(Cl)ccc2O)c1CCO
value reported: 253%

Summary for this molecule, Cn1c(=O)c(CCO)c(-c2cc(Cl)ccc2O)c2cc(C(F)(F)F)ccc21 : Activity is 296%
